measuredTarget: T1, 4Ig-B7H3 fused to mouse Fc (B7H3-mFc) (human, UniProt Q5ZPR3 29-466, limits assumed, biotinylated on primary amines (NHS-biotin) in the experiment of paragraph 316)
T1 construct: Expressed in DG44 CHO cells; also called 4Ig-B7H3-Fc; 4Ig-B7H3-mFc; not shown: mouse Fc
T1 sequence (looked up): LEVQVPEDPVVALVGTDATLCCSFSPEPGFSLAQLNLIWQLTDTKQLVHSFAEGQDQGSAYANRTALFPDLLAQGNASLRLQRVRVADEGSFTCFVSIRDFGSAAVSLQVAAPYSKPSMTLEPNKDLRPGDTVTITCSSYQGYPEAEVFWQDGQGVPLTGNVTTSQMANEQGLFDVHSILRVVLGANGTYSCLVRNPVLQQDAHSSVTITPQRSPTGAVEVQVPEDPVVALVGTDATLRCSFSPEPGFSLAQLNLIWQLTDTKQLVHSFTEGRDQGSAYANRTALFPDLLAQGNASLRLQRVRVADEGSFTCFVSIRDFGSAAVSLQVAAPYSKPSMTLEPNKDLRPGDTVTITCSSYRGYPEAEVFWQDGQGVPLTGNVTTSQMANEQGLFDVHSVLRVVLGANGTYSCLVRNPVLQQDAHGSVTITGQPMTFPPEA
assayDetails: SPR, IgG on 4Ig-B7H3-Fc
Protocol: In brief, B7H3 antigen (either 2Ig-B7H3, 4Ig-B7H3, 2Ig-B7H3-mFc, 4Ig-B7H3-mFc), was directly immobilized onto the CM5 sensor chip via […]. Reference surface was set up for nonspecific binding and refractive index changes. […] The association and dissociation phase data were fitted simultaneously to a 1:1 model by using BIAevaluation 3.2. All the experiments were done at 25° C.
Here, each record is paired with measured Kd data.
Use nM as the unit, but write only the number.

Below, each entry is followed by its recorded Kd result.
binder="hu8H9 H3L3 IgG1 (antibody, V domains shown) VH: QVQLVQSGAEVVKPGASVKLSCKASGYTFTNYDINWVRQRPEQGLEWIGWIFPGDGSTQYNEKFKGKATLTTDTSTSTAYMELSSLRSEDTAVYFCARQTTATWFAYWGQGTLVTVSS VL: EIVMTQSPATLSVSPGERVSLSCRASQSISDYLHWYQQKSHESPRLLIKYASQSISGIPARFSGSGSGSEFTLTINSVEPEDVGVYYCQNGHSFPLTFGQGTKLELKR" value=6.6
binder="hu8H9-H1L2 IgG1 (antibody, V domains shown) VH: QVQLVQSGAEVKKPGASVKLSCKASGYTFTNYDINWVRQAPGQGLEWIGWIFPGDGSTQYNEKFKGKATLTTDTSTSTAYMELSSLRSEDTAVYFCARQTTATWFAYWGQGTLVTVSS VL: EIVMTQSPATLSVSPGERVTLSCRASQSISDYLHWYQQKSHESPRLLIKYASQSISGIPARFSGSGSGTEFTLTINSVEPEDVGVYYCQNGHSFPLTFGQGTKLEIKR" value=42.7

Here's the next entry for you.
Supply Kd value. Item: hu8H9 5.1 IgG1 (antibody, V domains shown, also called clone 5.1) VH: QVQLVQSGAEVVKPGASVKVSCKTSGYTFTNYDINWVRQRPGQGLEWIGWIFPGDDSTQYNEKFKGRVTMTTDTSTSTVYMELSSLRSEDTAVYFCARQTTGTWFAYWGQGTLVTVSS VL: EIVMTQSPATLSVSPGERVTLSCRASQSISDYLYWYQQKSHQAPRLLIKYASQSISGIPARFSGSGSGSEFTLTISSLQPEDFGVYYCQNGHSFPLTFGQGTKLELKR
1.3
